I'd appreciate it if you could supply self-cleavage values for the items below.
B1: CPEB3 Ribozyme (parent)
chain: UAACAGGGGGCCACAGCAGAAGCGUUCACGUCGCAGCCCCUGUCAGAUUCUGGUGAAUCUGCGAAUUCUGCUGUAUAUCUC

variants of: B1; experiment: self-cleavage, relative activity (ratio to wild type); higher = more cleavage; in vitro, sequencing
Reply briefly: the number, and no unit.

Lookup: Query (variant): A3G U60G ; field requested: self-cleavage
Found: 0.45

Lookup: Requested read-out: self-cleavage. Entry: G33U U41C
Found: 0.25

Lookup: Need self-cleavage, item G10A C71A
Found: 0.11

Lookup: Look up self-cleavage: U41A A75G
Found: 0.27

Lookup: May I ask what self-cleavage has been recorded for G55U U69C ?
Found: 0.48

Lookup: self-cleavage for A5U U74A ?
Found: 1.24

Lookup: Look up self-cleavage: A47G U67A
Found: 0.49

Lookup: Please give the measured self-cleavage for this variant: A13U A15U
Found: 1.05

Lookup: Find the recorded self-cleavage belonging to C29U U43A and report it.
Found: 0.53

Lookup: Suppose we examine the variant A5U U76A ; what self-cleavage value has been reported?
Found: 1.12

Lookup: # self-cleavage lookup, item A3U C27U
Found: 0.6

Lookup: # get_value(readout='self-cleavage', item= G10U U51C )
Found: 0.4

Lookup: Form field: reported self-cleavage of A15G U51C
Found: 0.74

Lookup: So what's the measured self-cleavage for this one? U49C A64U
Found: 0.24

Lookup: I have this variant here, U49A G63A , and I need its recorded self-cleavage.
Found: 0.69

Lookup: Reported self-cleavage for U54C U58C : what is it?
Found: 0.48

Lookup: Which self-cleavage is listed for G30A C40U ?
Found: 0.54

Lookup: Which self-cleavage is listed for C27A A35G ?
Found: 0.52

Lookup: Please look up its self-cleavage: A56G U66A
Found: 0.44

Lookup: So what does the record say about self-cleavage for G63C C79A ?
Found: 1.09

Lookup: # lookup: self-cleavage of A35U G52U
Found: 0.72

Lookup: Any idea what its self-cleavage is? The variant is A13C U51G
Found: 0.88

Lookup: What measured self-cleavage goes with A20U U48A ?
Found: 0.14

Lookup: For A20C U48C , what is its reported self-cleavage?
Found: 0.28

Lookup: Which value of self-cleavage has been reported for G33U A45C in the records?
Found: 0.12

Lookup: Entry under review: C17U A64G . Reported self-cleavage?
Found: 0.52

Lookup: Recorded self-cleavage for C38U U60C , please?
Found: 0.33

Lookup: GET /values?readout=self-cleavage&item= C11G U31C
Found: 0.22

Lookup: Quick one: self-cleavage for A15G U26A ?
Found: 0.71

Lookup: Value lookup for self-cleavage; key = U1A A2G
Found: 0.87

Lookup: Sample A2U U76A — what was its self-cleavage?
Found: 1.14

Lookup: Entry under review: U26A G42A . Reported self-cleavage?
Found: 0.29

Lookup: State the recorded self-cleavage for this entry: C38U U41C
Found: 0.87

Lookup: Item A64G U66C has what recorded self-cleavage?
Found: 0.34

Lookup: What does the data say about its self-cleavage? Entry: A15G C29U
Found: 0.41

Lookup: Please give the measured self-cleavage for this variant: C29G A64G
Found: 0.41

Lookup: If you can, please state the reported self-cleavage value of U49C U80C .
Found: 0.61

Lookup: So what's the measured self-cleavage for this one? U31A C68U
Found: 0.54

Lookup: Please look up its self-cleavage: A45U G53A
Found: 0.68

Lookup: Give the measured self-cleavage of A47G U72C .
Found: 1.12

Lookup: Report self-cleavage for G9A U48C please.
Found: 0.36

Lookup: Given the entry C12A U78C , report its measured self-cleavage.
Found: 1.04

Lookup: Name the recorded self-cleavage for A57G U76C .
Found: 1.01

Lookup: Query: self-cleavage; subject: C23A A64G
Found: 0.53

Lookup: Need self-cleavage, item A13U U72G
Found: 0.76

Lookup: # lookup: self-cleavage of U54C G63C
Found: 1.01

Lookup: # get_value(readout='self-cleavage', item= U26A U72C )
Found: 1.13

Lookup: Recorded self-cleavage of C14U A28U , please.
Found: 1.21

Lookup: Query (variant): U54A C62G ; field requested: self-cleavage
Found: 0.42

Lookup: Reported self-cleavage for G55A U69C : what is it?
Found: 0.28

Lookup: Using the record for A57G A75U , report its self-cleavage.
Found: 1.01

Lookup: I am curious: what self-cleavage value has been reported for A15G A64G ?
Found: 0.65

Lookup: Would you mind telling me what self-cleavage value was observed for G30C A65C ?
Found: 0.11

Lookup: Record request: self-cleavage value, item A21U U66C
Found: 0.33

Lookup: GET /values?readout=self-cleavage&item= A57G U76A
Found: 1.01

Lookup: Name the recorded self-cleavage for C12U U66C .
Found: 0.71

Lookup: I would be grateful if you could share the reported self-cleavage for G10A G30U .
Found: 0.17

Lookup: Using the record for U58G U72C , report its self-cleavage.
Found: 0.28

Lookup: Param item = G22U U66C ; retrieve measured self-cleavage.
Found: 0.52

Lookup: Quick one: self-cleavage for U51G A56U ?
Found: 0.52

Lookup: Record request: self-cleavage value, item U31A U72A
Found: 0.41

Lookup: Query: self-cleavage; subject: A45G U76C
Found: 0.79

Lookup: Using the record for A13U G52A , report its self-cleavage.
Found: 1.22

Lookup: Value lookup for self-cleavage; key = G10C U26G
Found: 0.39

Lookup: Fill in: self-cleavage of A65G U74G is ___
Found: 0.89

Lookup: What measured self-cleavage goes with C68A C81A ?
Found: 0.6

Lookup: Query (variant): A5U G24A ; field requested: self-cleavage
Found: 0.4

Lookup: Find the recorded self-cleavage belonging to U26G U31C and report it.
Found: 0.25

Lookup: I am curious: what self-cleavage value has been reported for C37A U67A ?
Found: 0.14

Lookup: // lookup self-cleavage for U43A A64U
Found: 0.51

Lookup: Requested field: self-cleavage. Item: C71A U72C
Found: 0.41

Lookup: What value of self-cleavage has been recorded for this entry: U58G G70A
Found: 0.19

Lookup: Requested read-out: self-cleavage. Entry: A47U A77U
Found: 0.71

Lookup: Which self-cleavage is listed for U1A U41A ?
Found: 0.2

Lookup: For the variant A3G A18G , what self-cleavage is on record?
Found: 0.73

Lookup: Can you look up the measured self-cleavage of C40A A75G for me?
Found: 0.47

Lookup: Dear colleague, I am looking for the recorded self-cleavage of the following variant: A2U G16A
Found: 0.18

Lookup: Value lookup for self-cleavage; key = A18U U54G
Found: 0.34

Lookup: Could you share which self-cleavage value was measured for G10A U74A ?
Found: 0.25

Lookup: Recorded self-cleavage of U31A U69C , please.
Found: 0.3

Lookup: Look at this variant and give its reported self-cleavage. G9C A47G
Found: 0.21

Lookup: So what's the measured self-cleavage for this one? G30A U60G
Found: 0.34

Lookup: Looking for the measured self-cleavage of A2G U74G , can you help?
Found: 1.01

Lookup: State the recorded self-cleavage for this entry: C23U G30A
Found: 0.12

Lookup: Consider the variant shown here: U54C U67A What is its recorded self-cleavage?
Found: 0.48

Lookup: Fill in: self-cleavage of U41C C68U is ___
Found: 1.09

Lookup: Which self-cleavage value is on record for G22U U43A ?
Found: 0.34

Lookup: Entry C12G U48G has what self-cleavage?
Found: 0.35

Lookup: Given G53A U69C , state its recorded self-cleavage.
Found: 0.69

Lookup: What does the data say about its self-cleavage? Entry: U41A C59A
Found: 0.13

Lookup: What measured self-cleavage goes with G30A G61C ?
Found: 0.24
